These entries and their values trace back to patent US6927228B2.

target: PPARγ receptors (Homo sapiens, UniProt P37231); assay: PPARγ transactivation test; assay type: cell-based; parameters: expressed in transfected cells; conditions: concentration of 1 μM, relative to SB 219994 = 100%
Sequence (P37231 whole entry): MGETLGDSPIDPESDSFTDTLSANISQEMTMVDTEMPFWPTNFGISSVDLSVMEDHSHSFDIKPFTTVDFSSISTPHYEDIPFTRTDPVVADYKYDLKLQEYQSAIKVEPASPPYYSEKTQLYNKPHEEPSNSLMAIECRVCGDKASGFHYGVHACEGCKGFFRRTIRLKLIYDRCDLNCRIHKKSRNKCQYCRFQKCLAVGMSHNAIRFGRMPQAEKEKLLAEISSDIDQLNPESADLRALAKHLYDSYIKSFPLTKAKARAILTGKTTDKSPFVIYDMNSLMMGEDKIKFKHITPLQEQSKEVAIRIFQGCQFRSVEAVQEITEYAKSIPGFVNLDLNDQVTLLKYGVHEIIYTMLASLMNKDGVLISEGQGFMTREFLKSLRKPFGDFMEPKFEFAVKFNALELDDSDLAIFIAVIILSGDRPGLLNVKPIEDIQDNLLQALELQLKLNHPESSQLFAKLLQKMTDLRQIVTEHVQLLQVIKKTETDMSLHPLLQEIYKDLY
parameter: activation at 1 µM (%)

# compound, targetUnderTest, activation at 1 µM (%)
rows = [
    ("CCCCCCCC(=O)N(C)Cc1cccc(-c2ccc(CC3SC(=O)NC3=O)cc2)c1 (centres unmarked)", "PPARγ receptors (Homo sapiens, UniProt P37231)", 102),
    ("CN(Cc1cccc(-c2ccc(CC3SC(=O)NC3=O)cc2)c1)C(=O)c1ccccc1 (centres unmarked)", "PPARγ receptors (Homo sapiens, UniProt P37231)", 102),
]

P. CCCCCCC(=O)N(C)Cc1cccc(-c2ccc(CC3SC(=O)NC3=O)cc2)c1 (centres unmarked)
Q. CN(Cc1cccc(-c2ccc(CC3SC(=O)NC3=O)cc2)c1)C(=O)Nc1ccccc1 (centres unmarked)
Sorting by activation at 1 µM in descending order, would P or Q appear first? The response must carry the label of the picked entry. P
